Study target: KRAS G12D-cRAF (Homo sapiens, UniProt P01116, G12D)
Construct: expressed in transfected cells
Sequence (P01116 1-188 isoform P01116-2 G12D): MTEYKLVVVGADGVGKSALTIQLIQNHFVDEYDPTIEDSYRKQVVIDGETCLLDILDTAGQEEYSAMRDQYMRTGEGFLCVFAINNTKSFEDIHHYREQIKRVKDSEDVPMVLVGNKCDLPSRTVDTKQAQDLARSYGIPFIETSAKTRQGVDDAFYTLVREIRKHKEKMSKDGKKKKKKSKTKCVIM
Assay text: Cellular KRAS G12D-cRAF Binding Inhibition Assay (NanoBRET, AD293 stable cells)
Type: cell-based
Recorded conditions: 3 h incubation, read-out: NanoBRET KRAS G12D
Metric: pIC50
By convention, pIC50 is the negative base-10 log of a molar concentration.

Example results:
INSERT INTO assay_data (molecule, study_target, reported_measurement) VALUES
  ('CC1OCCCn2c(c3c4cc(ccc42)-c2csc(n2)CC(NC(=O)C24CC(C)(C2)C4)C(=O)N2CCCC(N2)C(=O)OCC(C)(C)C3)-c2cc(N3CCN(CC(F)(F)F)CC3)cnc21 (stereo not shown) [Example 39]', 'KRAS G12D-cRAF (Homo sapiens, UniProt P01116, G12D)', 7.66),
  ('CC1OCCCn2c(c3c4cc(ccc42)-c2csc(n2)CC(NC(=O)C2C(C)C2C)C(=O)N2NC(C(=O)OCC(C)(C)C3)C3CC2C3)-c2cc(N3CCN(C4COC4)CC3)cnc21 (stereo not shown) [Example 198]', 'KRAS G12D-cRAF (Homo sapiens, UniProt P01116, G12D)', 8.70),
  ('CCN1CCN(c2cnc3c(c2)-c2c4c5cc(ccc5n2CCCOC3C)-c2coc(n2)CC(NC(=O)C2C(C)C2C)C(=O)N2NC(C(=O)OCC(C)(C)C4)C3CC2C3)CC1 (stereo not shown) [Example 197]', 'KRAS G12D-cRAF (Homo sapiens, UniProt P01116, G12D)', 9.52),
  ('COCCN1CCN(c2cnc3c(c2)-c2c4c5cc(ccc5n2CCCOC3C)-c2csc(n2)CC(NC(=O)C2CC2C(F)F)C(=O)N2CCCC(N2)C(=O)OCC(C)(C)C4)CC1 (stereo not shown) [Example 101]', 'KRAS G12D-cRAF (Homo sapiens, UniProt P01116, G12D)', 8.56);

Input line: Please look up its pIC50: CC1OCCCn2c(c3c4cc(ccc42)-c2csc(n2)CC(NC(=O)C2CC2C(F)F)C(=O)N2CCCC(N2)C(=O)OCC(C)(C)C3)-c2cc(N3CCN(C4CCOCC4)CC3)cnc21 (stereo not shown) [Example 109]
Output line: 8.21

* * *

pIC50 listing for selected compounds.
Study target: KRAS G12D-cRAF (Homo sapiens, UniProt P01116, G12D)
Construct: expressed in transfected cells
Assay text: Cellular KRAS G12D-cRAF Binding Inhibition Assay (NanoBRET, AD293 stable cells)
Format: cell-based
Recorded conditions: 3 h incubation, read-out: NanoBRET KRAS G12D
Lab note — pIC50 values are minus log10 of concentrations in M.

Solved entries:
INSERT INTO assay_data (compound, study_target, reported_measurement) VALUES
  ('CC1OCCCn2c(c3c4cc(ccc42)-c2csc(n2)CC(NC(=O)C2CC2C(F)F)C(=O)N2CCCC(N2)C(=O)OCC(C)(C)C3)-c2cc(N3CCC4(CC3)COC4)cnc21 (centres unmarked)', 'KRAS G12D-cRAF (Homo sapiens, UniProt P01116, G12D)', 8.34),
  ('CC1OCCCn2c(c3c4cc(ccc42)-c2csc(n2)CC(NC(=O)C2CC2C(F)F)C(=O)N2CCCC(N2)C(=O)OCC(C)(C)C3)-c2cc(N3CCNCC3)cnc21 (centres unmarked)', 'KRAS G12D-cRAF (Homo sapiens, UniProt P01116, G12D)', 8.08),
  ('CC1CN(c2cnc3c(c2)-c2c4c5cc(ccc5n2CCCOC3C)-c2csc(n2)CC(NC(=O)C2CC2C(F)F)C(=O)N2CCCC(N2)C(=O)OCC(C)(C)C4)CCO1 (centres unmarked)', 'KRAS G12D-cRAF (Homo sapiens, UniProt P01116, G12D)', 8.47);

Input line: Given CC1CN(c2cnc3c(c2)-c2c4c5cc(ccc5n2CCCOC3C)-c2csc(n2)CC(NC(=O)C2CC2C(F)F)C(=O)N2CCCC(N2)C(=O)OCC(C)(C)C4)CC(C)O1 (centres unmarked) [Example 128] , state its recorded pIC50.
Output line: 8.60

Input line: Let us now turn to CC1OCCCn2c(c3c4cc(ccc42)-c2csc(n2)CC(NC(=O)C2CC2C(F)F)C(=O)N2CCCC(N2)C(=O)OCC(C)(C)C3)-c2cc(N3CCC(N(C)C)CC3)cnc21 (centres unmarked)
Output line: 8.34

Input line: Here is the next compound: CC1OCCCn2c(c3c4cc(ccc42)-c2csc(n2)CC(NC(=O)C2CC2C)C(=O)N2NC(C(=O)OCC(C)(C)C3)C3CC2C3)-c2cc(N3CCN(C)CC3)cnc21 (centres unmarked)
Output line: 8.57

Input line: Record: CC1OCCCn2c(c3c4cc(ccc42)-c2csc(n2)CC(NC(=O)C2CC2C)C(=O)N2CCCC(N2)C(=O)OCC(C)(C)C3)-c2cc(N3CCOCC3)cnc21 (centres unmarked)
Output line: 8.14

Input line: Check [2H]C([2H])([2H])N1CCN(c2cnc3c(c2)-c2c4c5cc(ccc5n2CCCOC3C)-c2csc(n2)CC(NC(=O)C2CC2C(F)F)C(=O)N2CCCC(N2)C(=O)OCC(C)(C)C4)CC1 (centres unmarked) too.
Output line: 8.57

Input line: How about this compound: CC1OCCCn2c(c3c4cc(ccc42)-c2csc(n2)CC(NC(=O)C2CC2C(F)F)C(=O)N2CCCC(N2)C(=O)OCC(C)(C)C3)-c2cc(N3CC4CCC3CN4C)cnc21 (centres unmarked)
Output line: 8.38

Input line: What about CC1OCCCn2c(c3c4cc(ccc42)-c2csc(n2)CC(NC(=O)C2CC2C(F)F)C(=O)N2CCCC(N2)C(=O)OCC(C)(C)C3)-c2cc(N3CCN(C)C(C)C3)cnc21 (centres unmarked) ?
Output line: 8.49

Input line: Next compound: CC1OCCCn2c(c3c4cc(ccc42)-c2csc(n2)CC(NC(=O)C2CC2C(F)F)C(=O)N2CCCC(N2)C(=O)OCC(C)(C)C3)-c2cc(N3CC(C)N(C)C(C)C3)cnc21 (centres unmarked) [Example 140]
Output line: 8.74

* * *

Assay text: PK Study of Compounds in Dogs
Format: in vivo, Beagle dogs
Recorded conditions: both sexes, beagle, dog, whole blood, IV 1 mg/kg (n=3), mean, read-out: Vss
Metric: Vd (L/kg)
API: value field is a number in L/kg; no unit string.

Input line: I would be grateful if you could share the reported Vd for CC1OCCCn2c(c3c4cc(ccc42)-c2csc(n2)CC(NC(=O)C2C(C)C2C)C(=O)N2NC(C(=O)OCC(C)(C)C3)C3CC2C3)-c2cc(N3CCN(C)CC3)cnc21 (stereo not shown) .
Output line: 2.62

* * *

Assay text: PK Study of Compounds in Rats
Assay type: in vivo, Male SD rats
Recorded conditions: male, SD, rat, whole blood, PO 10 mg/kg (n=3), mean, read-out: C0/Cmax
Metric: Cmax (ng/mL)
# unit: ng/mL | format: bare number

INSERT INTO results (molecule, reported_measurement) VALUES
  ('CC1OCCCn2c(c3c4cc(ccc42)-c2csc(n2)CC(NC(=O)C2C4COCC42)C(=O)N2NC(C(=O)OCC(C)(C)C3)C3CC2C3)-c2cc(N3CCN(C)CC3)cnc21 (stereo not drawn) [Example 192]', 472),
  ('CC1OCCCn2c(c3c4cc(ccc42)-c2csc(n2)CC(NC(=O)C2C(C)C2C)C(=O)N2NC(C(=O)OCC(C)(C)C3)C3CC2C3)-c2cc(N3CCN(C)CC3)cnc21 (stereo not drawn) [Example 186]', 1370);

Next item in the queue.
Input line: Looking for the measured Cmax of CC1OCCCn2c(c3c4cc(ccc42)-c2csc(n2)CC(NC(=O)C2C(C)C2C)C(=O)N2NC(C(=O)OCC(C)(C)C3)C3CC2C3)-c2cc(N3CCN(C4COC4)CC3)cnc21 (stereo not drawn) [Example 198] , can you help?
Output line: 2060

* * *

Assay text: PK Study of Compounds in Mice
Type: in vivo, Female ICR mice
Recorded conditions: female, ICR, mouse, whole blood, IV 1 mg/kg (n=3), mean
Metric: clearance
Numeric answer plus unit only.

INSERT INTO results (compound, reported_measurement) VALUES
  ('CC1OCCCn2c(c3c4cc(ccc42)-c2csc(n2)CC(NC(=O)C2C(C)C2C)C(=O)N2NC(C(=O)OCC(C)(C)C3)C3CC2C3)-c2cc(N3CCN(C4COC4)CC3)cnc21 (centres unmarked) [Example 198]', '5.75 mL/min/kg');

Input line: GET /values?readout=clearance&item= CC1OCCCn2c(c3c4cc(ccc42)-c2csc(n2)CC(NC(=O)C2C(C)C2C)C(=O)N2NC(C(=O)OCC(C)(C)C3)C3CC2C3)-c2cc(N3CCN(C)CC3)cnc21 (centres unmarked) [Example 186]
Output line: 4.45 mL/min/kg

* * *

Assay text: PK Study of Compounds in Mice
Format: in vivo, Female ICR mice
Recorded conditions: female, ICR, mouse, whole blood, IV 1 mg/kg (n=3), mean
Metric: half-life
Please format your answer as a value with the unit trailing.

INSERT INTO assay_data (compound, metric, reported_measurement) VALUES
  ('CC1OCCCn2c(c3c4cc(ccc42)-c2csc(n2)CC(NC(=O)C2C(C)C2C)C(=O)N2NC(C(=O)OCC(C)(C)C3)C3CC2C3)-c2cc(N3CCN(C4COC4)CC3)cnc21 (centres unmarked)', 'half-life', '8.9 h');

Here's the next entry for you.
Input line: Given the compound CC1OCCCn2c(c3c4cc(ccc42)-c2csc(n2)CC(NC(=O)C2C(C)C2C)C(=O)N2NC(C(=O)OCC(C)(C)C3)C3CC2C3)-c2cc(N3CCN(C)CC3)cnc21 (centres unmarked) , what is its reported half-life?
Output line: 9.31 h

Where do these numbers come from? They come from patent EP4800018A1.
